- Tested on: LNCaP tumor bearing mice
- measurementNotes: SPECT/CT scanning, exposure of 177Lu labeled compounds in tumor and tissues
- Assay type: in vivo
- condition: labeled with 177Lu; about 7.4 MBq (200 μCi) tail vein; scans 1-72 h
Reported Exposure in Tumor is given for each of the following compounds.

compound	Exposure in Tumor / h*ID %/g
COc1ccc(CCCC(=O)NC(CCCNC(=N)N)C(=O)N[C@@H](CCCCNC(=O)CN2CCN(CC(=O)O)CCN(CC(=O)O)CCN(CC(=O)O)CC2)C(=O)NCC2CCC(C(=O)N[C@@H](Cc3ccc4ccccc4c3)C(=O)NCCCC[C@H](NC(=O)N[C@@H](CCC(=O)O)C(=O)O)C(=O)O)CC2)cc1 (some centres unmarked)	235
COc1ccc(C(=O)NCCN2CCN(C(=O)CCC(=O)N[C@@H](CCCCNC(=O)CN3CCN(CC(=O)O)CCN(CC(=O)O)CCN(CC(=O)O)CC3)C(=O)N3CCc4cc(C(=O)N[C@@H](Cc5ccc6ccccc6c5)C(=O)NCCCC[C@H](NC(=O)N[C@@H](CCC(=O)O)C(=O)O)C(=O)O)ccc4C3)CC2)cc1	1350
COc1ccc(CCCC(=O)NC(CCC(N)=O)C(=O)N[C@@H](CCCCNC(=O)CN2CCN(CC(=O)O)CCN(CC(=O)O)CCN(CC(=O)O)CC2)C(=O)NCC2CCC(C(=O)N[C@@H](Cc3ccc4ccccc4c3)C(=O)NCCCC[C@H](NC(=O)N[C@@H](CCC(=O)O)C(=O)O)C(=O)O)CC2)cc1 (some centres unmarked)	473.6
O=C(O)CCCCCCCCCCCCC(=O)N[C@@H](CCCCNC(=O)CN1CCN(CC(=O)O)CCN(CC(=O)O)CCN(CC(=O)O)CC1)C(=O)NCC1CCC(C(=O)N[C@@H](Cc2ccc3ccccc3c2)C(=O)NCCCC[C@H](NC(=O)N[C@@H](CCC(=O)O)C(=O)O)C(=O)O)CC1 (some centres unmarked)	226.4
COc1ccc(CCCC(=O)NC(Cc2c[nH]cn2)C(=O)N[C@@H](CCCCNC(=O)CN2CCN(CC(=O)O)CCN(CC(=O)O)CCN(CC(=O)O)CC2)C(=O)NCC2CCC(C(=O)N[C@@H](Cc3ccc4ccccc4c3)C(=O)NCCCC[C@H](NC(=O)N[C@@H](CCC(=O)O)C(=O)O)C(=O)O)CC2)cc1 (some centres unmarked)	370

----------
# maps each entry to its Exposure in Spleen
- System: LNCaP tumor bearing mice
- measurementNotes: SPECT/CT scanning, exposure of 177Lu labeled compounds in tumor and tissues
- Type: in vivo
- condition: labeled with 177Lu; about 7.4 MBq (200 μCi) tail vein; scans 1-72 h
endpointName: Exposure in Spleen (h*ID %/g)

compound	measuredTarget	endpointName	assayValue
O=C(O)CCCCCCCCCCC(=O)N[C@@H](CCCCNC(=O)CN1CCN(CC(=O)O)CCN(CC(=O)O)CCN(CC(=O)O)CC1)C(=O)NCC1CCC(C(=O)N[C@@H](Cc2ccc3ccccc3c2)C(=O)NCCCC[C@H](NC(=O)N[C@@H](CCC(=O)O)C(=O)O)C(=O)O)CC1 (some centres unmarked)	LNCaP tumor bearing mice	Exposure in Spleen	62.06
COc1ccc(C(=O)NCCN2CCN(C(=O)CCC(=O)N[C@@H](CCCCNC(=O)CN3CCN(CC(=O)O)CCN(CC(=O)O)CCN(CC(=O)O)CC3)C(=O)NCC3CCC(C(=O)N[C@@H](Cc4ccc5ccccc5c4)C(=O)NCCCC[C@H](NC(=O)N[C@@H](CCC(=O)O)C(=O)O)C(=O)O)CC3)CC2)cc1 (some centres unmarked)	LNCaP tumor bearing mice	Exposure in Spleen	83.81
O=C(O)CCCCCCCCCCCCCCC(=O)N[C@@H](CCCCNC(=O)CN1CCN(CC(=O)O)CCN(CC(=O)O)CCN(CC(=O)O)CC1)C(=O)NCC1CCC(C(=O)N[C@@H](Cc2ccc3ccccc3c2)C(=O)NCCCC[C@H](NC(=O)N[C@@H](CCC(=O)O)C(=O)O)C(=O)O)CC1 (some centres unmarked)	LNCaP tumor bearing mice	Exposure in Spleen	55.76
COc1ccc(C(=O)N[C@@H](CCCCNC(=O)CN2CCN(CC(=O)O)CCN(CC(=O)O)CCN(CC(=O)O)CC2)C(=O)NCC2CCC(C(=O)N[C@@H](Cc3ccc4ccccc4c3)C(=O)NCCCC[C@H](NC(=O)N[C@@H](CCC(=O)O)C(=O)O)C(=O)O)CC2)cc1 (some centres unmarked)	LNCaP tumor bearing mice	Exposure in Spleen	65.02
O=C(O)CC[C@H](NC(=O)N[C@@H](CCCCNC(=O)[C@H](Cc1ccc2ccccc2c1)NC(=O)[C@H]1CC[C@H](CNC(=O)CN2CCN(CC(=O)O)CCN(CC(=O)O)CCN(CC(=O)O)CC2)CC1)C(=O)O)C(=O)O [PSMA-617, reference compound]	LNCaP tumor bearing mice	Exposure in Spleen	54.27
